- Method: Confirmatory qHTS for Identification of Small Molecule Activators of Huntingtin-Antisense Promoter Activity
- Test conditions: HEK293 HTT-AS promoter firefly luciferase reporter, 24 h; series mostly up to 57.5 µM
Calls of active or inactive are those of the source. Calls follow the shape of the dose curve; as a rule, active = well fitted activation curve with a large enough effect; inconclusive = small, poorly fitted or top-dose-only effect; inactive = no such curve, though single readings can be large or run the other way.
Pick one: active, inactive

Record request — test call for `CCN1C(=O)c2ccccc2Sc2ccc(NC(=O)Nc3ccc(Br)c(C)c3)cc21` inactive

What was the test verdict on `O=S(=O)(Nc1ccc(OC(F)(F)F)cc1)c1ccc(N2CCCCS2(=O)=O)cc1` ? inactive

Record request — test call for `COc1ccc(S(=O)(=O)N2CCC(c3nnnn3-c3ccccc3)CC2)cc1OC` inactive

I would be grateful if you could indicate the recorded call for `COc1ccc(NC(=O)Cn2nc(C(F)(F)F)c3c2CCCC3)cc1OC` . inactive

Each compound tested received a call. Report the one for `CN[C@H]1[C@@H](O)[C@@H]2O[C@@H]3O[C@H](C)CC(=O)[C@]3(O)O[C@@H]2[C@@H](NC)[C@H]1O` . inactive

Kindly provide the recorded test outcome for the following compound: `CC(C)c1ccc(NC(=O)c2cnc3sc(N4CCCC4)nn3c2=O)cc1` inactive

State the result this test recorded for Cc1ccc(N2C(=O)C(CC(=O)Nc3ccccc3)N(CCC3=CCCCC3)C2=O)cc1 (stereo unspecified) . active

What was the test verdict on `COc1cccc(NC(=O)c2oc3ccc(S(=O)(=O)N4CCCCCC4)cc3c2C)c1` ? inactive

Check the results log: what was the call for `Cc1nc(C)c(-c2ccc(SCC(=O)Nc3ccc(F)c(F)c3)nn2)s1` ? inactive

Test call, this compound: COc1ccccc1C1C=C(c2ccc(F)cc2)Nc2nc(-c3ccc(Cl)cc3)nn21 (stereo unspecified) inactive

Short answer needed: outcome of this test for `COc1cc(OC)cc(C(=O)Nc2ccc3c(c2)CCCN3C(=O)c2cccs2)c1` ? inactive

Status in this test for `COc1ccc(CNC(=O)c2oc3c(c2C)-c2nn(Cc4ccccc4Cl)cc2CC3)cc1` ? inactive

Called result for `COC(=O)[C@]12CCC(C)(C)C[C@@H]1[C@@H]1C(=O)C=C3[C@@]4(C)C=C(C#N)C(=O)C(C)(C)[C@@H]4CC[C@@]3(C)[C@]1(C)CC2` inactive

Any idea what this test logged for `COc1ccc(CCNC(=O)c2c(C)nn(-c3ccc(F)cc3)c2-n2cccc2)cc1OC` ? inactive

Check the results log: what was the call for Cc1cc(C)cc(OCCn2c(C3CC(=O)N(c4ccccc4Cl)C3)nc3ccccc32)c1 (stereo unspecified) ? inactive

Would you mind telling me which call this test gave COc1ccccc1C(=O)N1c2ccccc2C(C)(c2ccc(Cl)cc2)CC1(C)C (stereo unspecified) ? inactive

Assay outcome for `COc1ccccc1NC(=O)CSc1nnc2c(n1)[nH]c1ccccc12` : what was it? inactive

Outcome? `CC(=O)C1=C(c2ccc(Cl)c(Cl)c2)N(C(C)=O)n2c(C)nnc2S1` inactive

Test call for this compound, please: `CCc1ccc(CN(Cc2ccco2)C(=O)COc2ccccc2Cl)cc1` inactive

Look up the recorded call for `CCOc1ccc(CNC(=O)c2ccc(Sc3ccc(Cl)cc3)c(NC(C)=O)c2)cc1OC` in this test. inactive

What was the test verdict on `CCc1c(C)nc2nncn2c1Nc1ccc(C(C)C)cc1` ? inactive

What is the recorded call for this compound in the test? `CCOc1ccccc1CNC(=O)c1cc2c(=O)n(Cc3ccccc3)ccc2nc1C` inactive

Give the logged outcome of this assay for the following compound: `CCCOC(=O)c1cccc(NC(=O)c2c(-c3ccccc3Cl)noc2C)c1` inactive

Recorded test outcome, item `Cc1ccc(-c2c(C)n3c4c(=O)n(C)c(=O)n(C)c4nc3n2CCO)cc1` inactive

Hey, what did the test say about CCc1ccc(OCC2c3cc(OC)c(OC)cc3CCN2C(=O)COc2ccccc2)cc1 (stereo unspecified) ? inactive

Assay result, entry `Cc1ccc2onc(CC(=O)Nc3cccc(C(F)(F)F)c3)c2c1` — outcome? inactive
